Origin of the recorded values: patent US9505728B2

biological target: Human PPARα (Homo sapiens); construct: host or cells: proprietary non-human mammalian cells; experiment: Human PPARα Reporter Assay (luciferase); format: cell-based; details: human PPARα reporter cells, overnight incubation, antagonism; read-out: Luciferase IC50
Sequence (Q07869 whole entry): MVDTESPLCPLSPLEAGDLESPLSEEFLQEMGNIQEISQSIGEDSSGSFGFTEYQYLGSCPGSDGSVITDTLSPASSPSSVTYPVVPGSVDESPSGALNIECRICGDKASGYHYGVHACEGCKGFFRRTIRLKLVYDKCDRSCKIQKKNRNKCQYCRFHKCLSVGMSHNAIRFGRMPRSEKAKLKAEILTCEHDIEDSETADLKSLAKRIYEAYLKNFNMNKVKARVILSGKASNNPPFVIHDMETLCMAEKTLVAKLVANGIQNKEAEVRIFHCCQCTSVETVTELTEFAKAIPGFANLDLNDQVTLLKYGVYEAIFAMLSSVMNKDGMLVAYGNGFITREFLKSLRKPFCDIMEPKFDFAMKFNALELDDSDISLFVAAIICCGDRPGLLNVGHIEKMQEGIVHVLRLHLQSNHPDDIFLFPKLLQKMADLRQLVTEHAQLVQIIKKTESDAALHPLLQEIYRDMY
endpoint label: IC50 (nM)

Some entries whose results are on file:
                         chemical_structure  observed_value
0  CCn1c(CCCc2ccc(-c3ccc(OC)c(CC(=O)O)c3)cc2O)nn(Cc2ccc(C(C)(C)C)cc2)c1=O              98
1  CCn1c(CCCc2ccc(-c3ccc(OC)c(CC(=O)O)c3)cc2)nn(Cc2ccc(C(C)(C)C)cc2)c1=O              25
2  CCn1c(CCCc2ccc(-c3cc(CC(=O)O)ccn3)cc2)nn(Cc2ccc(C(C)(C)C)cc2)c1=O             306
3  CCn1c(CCCc2ccc(-c3ccc(C4(O)COC4)cn3)cc2)nn(Cc2ccc(C(C)(C)C)cc2)c1=O             106
4  CCn1c(CCCc2ccc(-c3cnc(OC)c(C(=O)O)n3)cc2)nn(Cc2ccc(C(C)(C)C)cc2)c1=O             630

1 = CCn1c(CCC(F)(F)c2ccc(-c3ccc(C4(O)COC4)cc3)cc2)nn(Cc2ccc(C(C)(C)C)cc2)c1=O
2 = CCn1c(CCCc2ccc(-c3ccc(OC)c(CNS(=O)(=O)Cc4ccccc4)c3)cc2)nn(Cc2ccc(C(C)(C)C)cc2)c1=O
3 = CCn1c(CCCc2ccc(-c3cc(OC)c(NS(=O)(=O)c4ccccc4)cn3)cc2)nn(Cc2ccc(C(C)(C)C)cc2)c1=O
Could you please order the items by IC50, going from the lowest number to the highest? Labels, ranked as asked. 1, 2, 3
(1: 110 nM, 2: 430 nM, 3: 816 nM)

I = CCOc1ccc(-c2ccc(CCCc3nn(Cc4ccc(C(C)(C)C)cc4)c(=O)n3CC)cc2)cc1CC(=O)O
II = CCn1c(CCCc2ccc(-c3cccc(NC(=O)NS(=O)(=O)c4ccccc4)n3)cc2)nn(Cc2ccc(C(C)(C)C)cc2)c1=O
III = CCNC(=O)Nc1cccc(-c2ccc(CCCc3nn(Cc4ccc(C(C)(C)C)cc4)c(=O)n3CC)cc2)n1
IV = CCn1c(CCCc2ccc(-c3cccc(CNS(=O)(=O)c4ccccc4)c3)cc2)nn(Cc2ccc(C(C)(C)C)cc2)c1=O
Could you please order the items by IC50, going from the lowest number to the highest? Labels, ranked as asked. I, II, IV, III
(I: 10 nM, II: 241 nM, IV: 419 nM, III: 816 nM)

P = CCn1c(CCCc2ccc(-c3ccc(OC)c(CNC)c3)cc2)nn(Cc2ccc(C(C)(C)C)cc2)c1=O
Q = CCn1c(CCCc2ccc(-c3ccc(OC)c(CC(=O)O)c3)cc2OC)nn(Cc2ccc(C(C)(C)C)cc2)c1=O
Which entry has a larger number for IC50, P or Q ? State the label of the item chosen. P
